# target or system: EP3 receptor (Homo sapiens)
# Sequence (P43115 whole entry): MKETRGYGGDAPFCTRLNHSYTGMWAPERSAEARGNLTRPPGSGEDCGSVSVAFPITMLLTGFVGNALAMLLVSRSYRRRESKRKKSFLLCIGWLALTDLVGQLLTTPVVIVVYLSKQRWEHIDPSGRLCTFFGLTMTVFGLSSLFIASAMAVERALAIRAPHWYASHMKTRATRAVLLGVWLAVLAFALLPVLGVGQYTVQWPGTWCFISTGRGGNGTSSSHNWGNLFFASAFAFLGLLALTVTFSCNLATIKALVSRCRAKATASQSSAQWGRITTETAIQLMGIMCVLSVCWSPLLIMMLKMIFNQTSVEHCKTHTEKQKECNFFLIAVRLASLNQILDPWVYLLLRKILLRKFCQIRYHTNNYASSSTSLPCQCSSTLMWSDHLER
# experiment notes: CHO cell cAMP assay (forskolin and sulprostone stimulated, HTRF)
# assay context: CHO cells; sulprostone 700 nM (EC80) and FSK 2 μM (EC70), 37° C. for 30 minutes; read-out: CHO_cAMP IC50
pIC50: −log10 of the molar value.
readout type: pIC50

A selection of reference data follows.
# compound, pIC50
data = [
    ("CC(C)C(CC(=O)NS(=O)(=O)c1cc(Cl)c(Cl)s1)c1ccc(-c2ccc3cccc(F)c3c2)[nH]c1=O (stereo not shown)", 6.24),
    ("CC(C)C(O)(CC(N)=O)c1ccc(-c2ccc3cccc(F)c3c2)[nH]c1=O (stereo not shown)", 6.94),
    ("O=C1NC(=O)C2(CCCC(c3ccc(-c4ccc5ccccc5c4)[nH]c3=O)C2)O1 (stereo not shown)", 6.92),
]

(A) CC(C)(CC1OC(=O)NC1=O)c1ccc(-c2ccc3cccc(F)c3c2)[nH]c1=O (stereo not shown)
(B) CCN1CCOc2c(F)cc(-c3ccc(C(CN4CCS(=O)(=O)CC4)C(C)C)c(=O)[nH]3)cc21 (stereo not shown)
(C) CC(C)C1(Cc2ccc(-c3ccc4cccc(F)c4c3)[nH]c2=O)OC(=O)NC1=O (stereo not shown)
(D) CC(C)C(c1ccc(-c2ccc3cccc(F)c3c2)[nH]c1=O)n1cnnc1N (stereo not shown)
Ranking field: pIC50; order: falling. # the answer lists labels in the order requested
D, A, B, C

(a) CC(C)C(c1ccc(-c2ccc3cccc(F)c3c2)[nH]c1=O)n1cnc(N)n1 (stereo not shown)
(b) CC(C)C(/C=C1\OC(=O)NC1=O)c1ccc(-c2ccc3c(c2)N(C)CCO3)[nH]c1=O (stereo not shown)
Could you tell me which of these two has the smaller pIC50 figure? First: a Second: b Please respond with the label that marks your chosen entry.
b

(1) O=C1NC(=O)C(CC2(c3ccc(-c4ccc5cccc(F)c5c4)[nH]c3=O)CCCC2)O1 (stereo not shown)
(2) CC1(c2ccc(-c3ccc4ccccc4c3)[nH]c2=O)Cn2cnnc2N1 (stereo not shown)
(3) CC(C)C(Cc1ccc(-c2ccc3cccc(F)c3c2)[nH]c1=O)c1ncc[nH]1 (stereo not shown)
Ranking field: pIC50; order: falling. # the answer lists labels in the order requested
1, 3, 2
